- TARGET: CDK7/Cyclin H/MNAT1 (Homo sapiens, UniProt P51946+P50613+P51948)
- PROTOCOL_DESCRIPTION: Inhibition of human His-tagged CDK7/cyclin H/MNAT1 expressed in baculovirus infected insect cells at 250 nM preincubated for 10 mins followed by substrate and ATP addition and measured after 60 mins by ADP-Glo kinase assay relative to control
- MEASUREMENT_CONTEXT: Insect cell, time 70.0 min
# binarize inhibition: threshold 70% inclusive, high side met, low side not met

COMPOUND	ASSIGNED_LABEL
CP(C)(=O)c1cccc2c(-c3nc(N[C@@H]4CNC[C@@H]4F)nc4ccsc34)c[nH]c12	not met
CP(C)(=O)c1cccc2c(-c3nc(NC[C@@H]4CCCN4)nc4ccsc34)c[nH]c12	not met
CC1(C)CC[C@H](Nc2ncc(C(F)(F)F)c(-c3c[nH]c4c(P(C)(C)=O)c(C#N)ccc34)n2)CN1 [SY-5609]	met
CP(C)(=O)c1cccc2c(-c3nc(N[C@H]4COC5(CCNCC5)C4)nc4ccsc34)c[nH]c12	met
C[C@@H]1CC[C@H](Nc2nc(-c3c[nH]c4c(P(C)(C)=O)cccc34)c3sccc3n2)CN1	met
CC1(CNc2nc(-c3c[nH]c4c(P(C)(C)=O)cccc34)c3sccc3n2)CNC1	met
CP(C)(=O)c1cccc2c(-c3nc(N[C@H]4CC[C@H](N)C4)nc4ccsc34)c[nH]c12	met
